Experiment: soluble on expression in E. coli; label from the status in PepcDB or PDB records
parameter.measured: soluble on expression in E. coli

MGSDKIHHHHHHMATAIRGLKLQTEDYFLTDKNAVMVAERHPQPVFPLHHHDFDELVIVWRGNGLHLWNDVPYRITRGDMFYVSAHDRHSYESVHELELDNILYIRNRLTLSADWQTLLPSGELPQSQRHWCLGSEGMDTIREKVDALTQECMKSDALSLQLSEALLLQIALLAARYRHSPDSPQLADAHQLDMLMNALRASIAAPFRFEAFCEQHHFSARSLRSRFKEQTGMSVPHYLRQLRLCKAMELLRYDLQTIGDVAALCGFEDSNYFSVVFHQAFGVSPSAYRQRFLNVE
not soluble
MTRPVIVPFFISHQGCPHRCVFCDQERIAGRAGRLPSAAEIHSAVKTFGRGRPVEAAFYGGTFTSLPRNEQERLLAALQPLRHDGSVRSVRLSTRPDALDAETAGFLKSMGVASVELGVQSMDDQVLDVSGRGHSAADTVRAFDVLRSEGIAVGAQLMPGLPGDSRERSLDSLTRILDLKPVSLRIYPTLVVAGTRLAEFWAEGSYTPLTLADAVPLCADMLLACKRAGVPVIRLGLQPTDILERSVLAGPWHPALRQLVEGELWYRLLERLTTGLAAGTVVSVACAPARISDVVGQRRVNLSRLLERRGIVVTGVAGCPTAAPDTLTLTHAGGTVAGSLTD
not soluble

* * *

Test: soluble on expression in E. coli; label from the status in PepcDB or PDB records
parameter.measured: soluble on expression in E. coli

MAVTQSPRNKVAVTGGKVTLSCNQTNNHNNMYWYRQDTGHGLRLIHYSYGAGSTEKGDIPDGYKASRPSQENFSLILELATPSQTSVYFCASGDLGQTNERLFFGHGTKLSVLGSADDAKKDAAKKDGQVRQSPQSLTVWEGETAILNCSYENSAFDYFPWYQQFPGEGPALLISILSVSDKKEDGRFTIFFNKREKKLSLHIADSQPGDSATYFCAAIDTNAYKVIFGKGTHLHVLP
soluble
MDNNLEIKDLEKIAKKVRYNIVKMVGLAKSGHPGGSLSATDIIVALYFKLMNYSPDNPYKKDRDRFVLSKGHAAPALYAVLSELGIIEEEELWKLRRLEGKLQGHPSMDTPGVEICTGSLGQGFSAAVGMALGCRLDKLNNYVYVLLGDGECQEGIVWEAAMAAAHYKLDNLIAFIDRNKLQIDGCTEDVMSLGDIKAKFEAFGWDVFEIDGHNFEEIINTVEKAKSMKNGKPKMIIAYTVKGKGVSFMENNVAFHGKAPNEEQLKQALEELSE
soluble

* * *

Test: soluble on expression in E. coli; label from the status in PepcDB or PDB records
parameter.measured: soluble on expression in E. coli

MSLIDAEHIEIALDKRYLRESYLPERALDDILDGQVIIETQGEQVGQVNGLTVIEVTGHPMPYGEPARISCVIHFGDGDIADVERKVELGGNLHAKGMMIMQAFVSSALNLDGSLPFSASIVFEQSYSEVDGDSASLAELCSLVSALSEYPIDQQIAVTGAVDQFGRVQAVGGLNEKIEGFYRVCCHQGLTGEQGVILPSSNLKHLALHKSVVESIKNGEFNIWPVSTVDEAIPLLMGKPFRGEDEDSVIAKIAERIDNFEKLVEGHHHHHH
soluble
VHYGLKGITCVETSISHIDGEKGRLIYRGHHAKDIALNHSFEEAAYLILFGKLPSTEELQVFKDKLAAERNLPEHIERLIQSLPNNMDDMSVLRTVVSALGENTYTFHPKTEEAIRLIAITPSIIAYRKRWTRGEQAIAPSSQYGHVENYYYMLTGEQPSEAKKKALETYMILATEHGMNASTFSARVTLSTESDLVSAVTAALGTMKGPLHGGAPSAVTKMLEDIGEKEHAEAYLKEKLEKGERLMGFGHRVYKTKDPRAEALRQKAEEVAGNDRDLDLALHVEAEAIRLLEIYKPGRKLYTNVEFYAAAVMRAIDFDDELFTPTFSASRMVGWCAHVLEQAENNMIFRPSAQYTGAIPEEV
soluble
MKPIQLPLSVRLRDDATFANYYPGANAAALGYVERLCEAEAGWAESLIYLWGHDGVGRSHLLQAACLRFEQFEERTIYLPMADLVQYGPEIFDDLEQCELVCIDDLDVLVGKREWEEGLFHLFNRLRDTGRRLLLAASKSPRELQVKLPDLKSRLTMALIFQLHGLSDEDKLRALQLRASRRGLHLTDEVGRFILNRGSRSMNSLFDLLEQLDRASLQAQRKLTIPFLKETLGWLEHHHHHH
soluble
IEVAAIQGNVPRMGLDFNAQRRAVLANHARETLKLDEQVDLVIWPENSSDVNPFSDAQARAIIDGAVEHVQAPILVGTITVDEVGPRNTMQVFDPVEGAAEYHNKKFLQPFGEYMPFREFLRIFSPYVDSAGNFQPGDGTGVVEMNAANLGRAVTVGVMTCYEVIFDRAGRDAIANGAEFLTTPTNNATFGFTDMTYQQLAMSRMRAIEFDRAVVVAATSGVSAIVNPDGSISQNTRIFEAATLTESIPLKDTVTIAARVGFY
not soluble
MAKTLYEKLFDAHVVYEAQNETPLLYIDRHLVHEVTSPQAFDGLRAHGRQVRQPGKTFATMDHNVSTQTKDINASGEMARIQMQELIKNCKEFGVELYDLNHPYQGIVHVMGPEQGVTLPGMTIVCGDS
not soluble

In the following, a different sequence is considered.
Query soluble on expression in E. coli for MSLELKPKRFLVLDDQLVLRKLISRQASFFTRFAVEIDEFSDPAEALRSIAEGGYHLVITDIGMPGMNGIDFIKNVARLGYQSALLIISGYDGKTLQTIADMSVNLGLSCTRFLSKPYSAEAFVAALNGIFSEMERSEAEGHHHHHH not soluble

* * *

Assay: soluble on expression in E. coli; label from the status in PepcDB or PDB records
parameter.measured: soluble on expression in E. coli

MSLSTIGSMMSIYSEAGDFGNIFVTGRIAFSLKYEQQTQSLVVHVKECHQLAYADEAKKRSNPYVKTYLLPDKSRQGKRKTSIKRDTVNPLYDETLRYEIPESLLAQRTLQFSVWHHGRFGRNTFLGEAEIQMDSWKLDKKLDHCLPLHGKISAESPTGLPSHKGELVVSLKYIPASKTPVGGDRKKSKGGEGGELQVWIKEAKNLTAAKAGGTSDSFVKGYLLPMRNKASKRKTPVMKKTLNPHYNHTFVYNGVRLEDLQHMCLELTVWDREPLASNDFLGGVRLGVGTGISNGEVVDWMDSTGEEVSLWQKMRQYEGHHHHHH
not soluble
GAMADRDRLRPPLDERSLRDQLIGAGSGWRQLDVVAQTGSTNADLLARAASGADIDGVVLIAEHQTAGRGRHGRGWAATARAQIILSVGVRVVDVPVQAWGWLSLAAGLAVLDSVAPLIAVPPAETGLKWPNDVLARGGKLAGILAEVAQPFVVLGVGLNVTQAPEEVDPDATSLLDLGVAAPDRNRIASRLLRELEARIIQWRNANPQLAADYRARSLTIGSRVRVELPGGQDVVGIARDIDDQGRLCLDVGGRTVVVSAGDVVHLR
soluble
MKIAIIGYSGSGKSTLANFLGQHYNCEVLHLDKIHFTSNWQERTVDEMTDDISTFMLQSDWIIEGNYSACLYEERMREADCIVYFNFNRVNCLYRAFRRYLTYRGKTRPSMAEG
not soluble
MTSSDQSPSHDVFVYGSFQEPAVVNLILECAPVMVSAQLHGYHLYRLKGRLHPCISPSDNGLINGKILTGLTDSQLESLDMIEGTEYVRKTVEVVLTDTLEKKQVETIVWANKDDPNMYGEWDFEEWKRLHMEKFIEAATKFMEWKKNPNGRSREEFEKFVQDDSSPASA
soluble

* * *

Assay: soluble on expression in E. coli; label from the status in PepcDB or PDB records
parameter.measured: soluble on expression in E. coli

MFCVRCGSSDSELYEGLCRDCFLEDYSILRIPDRIEVRVCSHCRAKFISGQWLDEGLPDEEIVYRALEDSISWDEPVENPEIELEIMQERGTIYRCLVEVDAEVLGKRLSQEYEVEVRITNTVCPTCSKQSSGYYEAVIQLRADGRELAETEIETADRVVQRTLLKLSRRDKLAYLPQRVEVKEGVDYYIGSHKSARKVVDAIREKLGGITMESPRLMGQDKSTGKGLYRTWISLRLANFRVGDFLSHHNRILAVIDLRKKGVSVRDLETREVKNILWGEYEDMDVVGRADDVKTTTVTSRSPGMIQILHPETFEPVDLEADSYTSTLDIGEQVPVIEIDKRLYIIEDEAEELEHHHHHH
soluble
SLPSYVVPEEPLLSAPTVAELTQAVNGAVVSGDVALREREVMGVLAAGMTADHVLERLTDGMAVITPGDRSDVVLAVASAHAAEGFPSLSCIVLNGGFQLHPAIAALVSGLRLRLPVIATALGTYDTASAAASARGLVTATSQRKIDTALELMDRHVDVAGLLAQLTI
soluble
MQENSPLLQLQNVGYLAGDAKILNNINFSLRAGEFKLITGPSGCGKSTLLKIVASLISPTSGTLLFEGEDVSTLKPEIYRQQVSYCAQTPTLFGDTVYDNLIFPWQIRNRQPDPAIFLDFLERFALPDSILTKNIAELSGGEKQRISLIRNLQFMPKVLLLDEITSALDESNKHNVNEMIHRYVREQNIAVLWVTHDKDEINHADKVITLQPHAGEMQEARYELA
not soluble
MGSDKIHHHHHHMSFPTIPDITPTISINRSDVINLLLASIAFEELGLAHIINAEAEKIQYILGTLSEQVPTEPPTQDDLIEINKSVNQTLRTVIKNQMLLQFKLEDLIVENPLPSITIKKYVSGDGGVTWYDADSPPGPTIDPEQVPMFRFVITNTGNVILTGVTVTDSVLGLISTGGILPPGAFFEEYRSGEYLGGDQSNTATVIGYYLDQQVEDSDVAYYTEPT
not soluble
MKIYTRTGDAGETGLYGAERVVKAHPRVEAYGTVDEANSAIGLARSLLPGKHRDLHDLLERLQNALFDLGADLATRMGSPYEKNIARMDAEDVRALEEAIDRYQEESPPFQGFILPGGHPAAAALHLARTVVRRAERKAVALSREEPVNPEVIRYLNRLSDLLFVLARVVNAREGIKEEGWLVKKRR
soluble

Now for the sequence whose soluble on expression in E. coli we want.
Give the value of soluble on expression in E. coli reported for the following: MSLTFSILAHDPETGAIGGAAATGSLCVGGWVLRGDLNAGMSASQGAAPSTFWGEEVLQHLRDGSHPEDAVNHVTSQDSGRAYRQLAAMDLLGNAAAFTGSENQDIKGSVTFASGIASGNMLGDNSVLGAMTEAFVASDLTFERRLLAALIAAEGAGSDFRGLLSAAMLVLHPDRPPVTLRIDYHPDNPIGALEQLYQKATTGDYADWARQVPVLSDKERILDEGHHHHHH soluble
